experiment_description: Mouse acute toxicity
Type: in vivo
measurement_setup: in vivo, ip, intraperitoneal
measured_quantity: LD50 (mg/kg)

CC(C)(C)NCC(O)CSc1nc(-c2ccc(C(N)=O)s2)cs1 (stereo not shown) : 500

====

experiment_description: Mouse acute toxicity
Format: in vivo
measurement_setup: in vivo, oral
measured_quantity: LD50

CC(C)(C)NCC(O)CSc1nc(-c2ccc(C(N)=O)s2)cs1 (stereo not shown) : > 5000 mg/kg

====

experiment_description: Rat acute toxicity
Format: in vivo
measurement_setup: in vivo, ip, intraperitoneal
measured_quantity: LD50

CC(C)(C)NCC(O)CSc1nc(-c2ccc(C(N)=O)s2)cs1 (stereo not shown) : 340 mg/kg

====

experiment_description: Rat acute toxicity
Type: in vivo
measurement_setup: in vivo, oral
measured_quantity: LD50

CC(C)(C)NCC(O)CSc1nc(-c2ccc(C(N)=O)s2)cs1 (stereo not shown) [compound (I)] : > 3000 mg/kg
